Value source: paper PMC9018117

Items are presented alongside their recorded IC50.
- Target System: human recombinant 5-LOX (Homo sapiens, UniProt P09917)
- Sequence (P09917 1-674): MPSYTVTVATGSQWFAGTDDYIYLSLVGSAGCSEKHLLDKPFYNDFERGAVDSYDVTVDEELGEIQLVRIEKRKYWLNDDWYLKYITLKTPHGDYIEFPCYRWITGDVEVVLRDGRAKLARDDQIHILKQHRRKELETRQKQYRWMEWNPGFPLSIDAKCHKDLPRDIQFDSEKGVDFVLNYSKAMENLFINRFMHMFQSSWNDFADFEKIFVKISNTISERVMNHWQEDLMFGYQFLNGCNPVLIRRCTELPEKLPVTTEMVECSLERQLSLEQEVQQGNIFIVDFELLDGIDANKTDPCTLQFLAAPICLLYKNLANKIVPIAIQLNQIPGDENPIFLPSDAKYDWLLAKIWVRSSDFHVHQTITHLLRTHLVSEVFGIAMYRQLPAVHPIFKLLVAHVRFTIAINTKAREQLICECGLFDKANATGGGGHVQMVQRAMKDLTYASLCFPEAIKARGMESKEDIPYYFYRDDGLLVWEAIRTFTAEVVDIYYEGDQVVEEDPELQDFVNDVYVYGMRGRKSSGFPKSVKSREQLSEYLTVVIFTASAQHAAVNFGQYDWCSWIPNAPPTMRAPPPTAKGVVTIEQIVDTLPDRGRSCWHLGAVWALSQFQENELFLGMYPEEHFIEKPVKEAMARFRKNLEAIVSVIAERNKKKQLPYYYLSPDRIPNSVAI
- Assay Comment: 5-LOX activity, ferrous oxidation-xylenol orange
Numeric answer only, unit µM assumed.

Returns the measured IC50 for the input molecule. Input: CC(C)=CCC/C(C)=C/CC/C(C)=C/CC[C@]1(C)CCc2cc(O)c(C)c(C)c2O1 [γTE, γ-tocotrienol]
4.3

New cases:
Please report the recorded IC50 for CC(C)=CCC/C(C)=C/CC/C(C)=C/CC[C@]1(C)CCc2cc(O)cc(C)c2O1 [δTE, δ-tocotrienol] .
4.3
